In this section, each of the compounds is paired with its reported Ki.
# Tested system: BRD4 (BDI_K57-E168) (Homo sapiens)
# Construct: BD1: amino acids K57-E168; made in house
# Protocol notes: TR-FRET bromodomain binding assay, first bromodomain of BRD4
# Conditions: TR-FRET assay protocol G (compound 0.92 μM-15 pM); 100 nM probe

Answered cases to consult:
>  <Compound>
CC(=O)NC1CCC(N2Cc3c[nH]c4c(=O)n(C)cc(c34)-c3cc(CS(C)(=O)=O)ccc32)CC1 (mixture of isomers)

>  <Ki>
1.85 nM

$$$$
>  <Compound>
Cn1cc2c3c(c[nH]c3c1=O)C(c1ccc(-n3ccnc3)cc1)N(c1ccc(F)cc1F)c1ccc(CS(C)(=O)=O)cc1-2 (racemic)

>  <Ki>
10.3 nM

$$$$
>  <Compound>
Cn1cc2c3c(c[nH]c3c1=O)CN(c1ccc(F)cc1F)c1ncncc1-2

>  <Ki>
> 238 nM

$$$$

Here is another compound to look at.
Exercise: In one line, give reported Ki of the entry Cn1cc2c3c(c[nH]c3c1=O)C(C(=O)NCC(C)(C)O)N(c1ccc(F)cc1F)c1ccc(CS(C)(=O)=O)cc1-2 (stereo not shown) .
Solution: 81.4 nM

The reported measurements were obtained from patent US10035800B2.
